From: patent US6051217

For each record, write down the corresponding Relative Biological Activity (AML 193 proliferation).
- target_under_test: T1, hIL-3 receptor (human, UniProt P26951)
- T1 sequence: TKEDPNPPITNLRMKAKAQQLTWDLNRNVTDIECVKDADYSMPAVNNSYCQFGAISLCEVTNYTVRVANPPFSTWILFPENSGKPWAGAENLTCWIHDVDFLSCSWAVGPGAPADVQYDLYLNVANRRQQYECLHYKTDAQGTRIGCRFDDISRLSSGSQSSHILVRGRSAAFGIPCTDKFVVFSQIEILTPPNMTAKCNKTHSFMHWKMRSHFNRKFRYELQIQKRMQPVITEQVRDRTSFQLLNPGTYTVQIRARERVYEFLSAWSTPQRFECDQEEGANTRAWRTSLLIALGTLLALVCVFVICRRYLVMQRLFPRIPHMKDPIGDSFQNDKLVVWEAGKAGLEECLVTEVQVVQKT
- assay_remarks: cell-based or functional assay

Example entries begin here.
{"binder": "pMON13405 polypeptide (ligand) MANCSIAIDEIIHHLKRPPNPLLDPNNLNSEDVDILMERNLRTPNLLAFVRAVKHLENASGIEAILRNLQPCLPSATAAPSRHPIIIKAGDWQEFREKLTFYLVTLEQAQEQQ", "result": "9 EC50 (1-133)hIL-3 / EC50 mutant"}
{"binder": "pMON13426 polypeptide (ligand) MANCSIAIDEIIHHLKRPPNPLLDPNNLNSEDVDILDERNLRTPNLLAFVRAVKHLENASGIEAILRNLQPCLPSATAAPSRHPIIIKAGDWQEFREKLTFYLVTLEQAQEQQ", "result": "> 0.0003 EC50 (1-133)hIL-3 / EC50 mutant"}
{"binder": "pMON13379 polypeptide (ligand) MANCSIMIDEIIHHLKRPPAPLLDPNNLNAEDVSILMDRNLRLPNLESFVRAVKNLENASGIEAILRNLQPCLPSATAAPSRHPIIIKAGDWQEFREKLQFYLVTLEQAQEQQ", "result": "0.9 EC50 (1-133)hIL-3 / EC50 mutant"}
{"binder": "pMON13418 polypeptide (ligand) MANCSIMIDEIIHHLKRPPNPLLDPNNLNSEDMDILMERNLRTPNLLAFVRAVKHLENASGIEPILSNLQPCVPYWTAPPSRTPITIKAGDWQEFREKLTFYLVTLEQAQEQQ", "result": "0.5 EC50 (1-133)hIL-3 / EC50 mutant"}
{"binder": "pMON13313 polypeptide (ligand) MANCSIMIDEIIHHLKRPPAPLLDPNNLNAEDVDILMERNLRLPNLESFVRAVKNLENASGIEAILRNLVPCLPSATAAPSRHPITIKAGDWQEFREKLTFYLVSLEHAQEQQ", "result": "8 EC50 (1-133)hIL-3 / EC50 mutant"}

Please go through the list and note Relative Biological Activity (AML 193 proliferation) for each binder.
1. pMON13440 polypeptide (ligand) MANCSIMIDEAIHHLKIPPNPSLDSANLNSEDVSILMERNLRTPNLLAFVRAVKHLENASGIEPILRNLQPCLPSATAAPSRTPIIIKAGDWQEFREKLTFYLVTLEQAQEQQ
2. pMON13288 polypeptide (ligand) MANCSIMIDEIIHHLKRPPNPLLDPNNLNSEDMDILMERNLRTPNLLAFVRAVKHLENASGIEAILRNLQPCLPSATAAPSRHPIIIKAGDWQEFREKLTFYLVTLEQAQEQQ
3. pMON13409 polypeptide (ligand) MANCSIMIDEIIHHLKRPPNPLLDPNNLNSEDMDILLERNLRTPNLLAFVRAVKHLENASGIEAILRNLQPCLPSATAAPSRHPIIIKAGDWQEFREKLTFYLVTLEQAQEQQ

Given back:
9 EC50 (1-133)hIL-3 / EC50 mutant
24 EC50 (1-133)hIL-3 / EC50 mutant
15 EC50 (1-133)hIL-3 / EC50 mutant
